// data source = patent US20230285582A1

Target: T1, cynomolgus monkey (Macaca fascicularis) TfR1 (cynomolgus monkey (Macaca fascicularis), UniProt Q5RDH6 89-760 (Pongo abelii entry), limits assumed)
T1 construct: also called cTfR1; cyTfR1
T1 chain: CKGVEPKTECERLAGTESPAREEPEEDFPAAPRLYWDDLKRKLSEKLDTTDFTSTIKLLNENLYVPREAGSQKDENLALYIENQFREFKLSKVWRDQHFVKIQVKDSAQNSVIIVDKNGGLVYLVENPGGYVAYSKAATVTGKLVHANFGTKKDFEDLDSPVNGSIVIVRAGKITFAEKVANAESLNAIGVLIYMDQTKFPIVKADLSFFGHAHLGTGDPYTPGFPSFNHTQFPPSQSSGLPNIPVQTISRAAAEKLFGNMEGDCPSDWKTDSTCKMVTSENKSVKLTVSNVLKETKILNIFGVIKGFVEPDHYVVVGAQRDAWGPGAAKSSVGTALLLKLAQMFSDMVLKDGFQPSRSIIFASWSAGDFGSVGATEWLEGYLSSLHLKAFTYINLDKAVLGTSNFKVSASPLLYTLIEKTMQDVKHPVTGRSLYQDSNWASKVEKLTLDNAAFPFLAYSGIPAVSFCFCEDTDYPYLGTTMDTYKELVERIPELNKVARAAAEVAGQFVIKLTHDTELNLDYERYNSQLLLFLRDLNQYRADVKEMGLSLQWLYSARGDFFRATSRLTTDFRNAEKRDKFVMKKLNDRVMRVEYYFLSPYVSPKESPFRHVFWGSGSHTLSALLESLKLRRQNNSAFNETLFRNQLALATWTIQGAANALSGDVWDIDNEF
Test: ELISA, coated recombinant TfR1, Fab-ASO300 conjugate
Exercise: state measured pEC50 for each of the binders provided.
Numbers only, as −log10 of the molar value.

// solved cases for pEC50 follow
BINDER	pEC50
conjugate of humanized anti-TfR Fab 3A4 VH3 (N54T)/Vk4 with DMPK-targeting oligonucleotide ASO300 (Fab, V domains shown, ASO300 oligonucleotide attached through a cleavable Val-Cit linker (Formula (C)); residue and chain not stated, also called 3A4 (VH3-N54T/Vk4) conjugate; DMPK oligo conjugate) VH: EVQLVQSGSELKKPGASVKVSCTASGFNIKDDYMYWVRQPPGKGLEWIGWIDPETGDTEYASKFQDRVTVTADTSTNTAYMELSSLRSEDTAVYYCTLWLRRGLDYWGQGTLVTVSS VL: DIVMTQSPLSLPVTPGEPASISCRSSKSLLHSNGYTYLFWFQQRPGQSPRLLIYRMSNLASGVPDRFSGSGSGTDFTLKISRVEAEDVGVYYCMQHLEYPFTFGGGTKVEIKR	8.33
conjugate of humanized anti-TfR Fab 5H12 VH5 (C33D)/Vk4 with DMPK-targeting oligonucleotide ASO300 (Fab, V domains shown, ASO300 oligonucleotide attached through a cleavable Val-Cit linker (Formula (C)); residue and chain not stated, also called 5H12 (VH5-C33D/Vk4) conjugate; DMPK oligo conjugate) VH: QVQLVQSGAEVKKPGASVKVSCKASGYSFTDYDINWVRQAPGQGLEWMGWIYPGSGNTRYSERFKGRVTITRDTSASTAYMELSSLRSEDTAVYYCAREDYYPYHGMDYWGQGTLVTVSS VL: DIVMTQSPDSLAVSLGERATINCRASESVDGYDNSFMHWYQQKPGQPPKLLIFRASNLESGVPDRFSGSGSGTDFTLTISSLQAEDVAVYYCQQSSEDPWTFGQGTKLEIKR	7.99

Now for the binder whose pEC50 we want.
Problem: Indicate its recorded pEC50; the binder in question is conjugate of humanized anti-TfR Fab 3A4 VH3 (N54S)/Vk4 with DMPK-targeting oligonucleotide ASO300 (Fab, V domains shown, ASO300 oligonucleotide attached through a cleavable Val-Cit linker (Formula (C)); residue and chain not stated, also called 3A4 (VH3-N54S/Vk4) conjugate; DMPK oligo conjugate) VH: EVQLVQSGSELKKPGASVKVSCTASGFNIKDDYMYWVRQPPGKGLEWIGWIDPESGDTEYASKFQDRVTVTADTSTNTAYMELSSLRSEDTAVYYCTLWLRRGLDYWGQGTLVTVSS VL: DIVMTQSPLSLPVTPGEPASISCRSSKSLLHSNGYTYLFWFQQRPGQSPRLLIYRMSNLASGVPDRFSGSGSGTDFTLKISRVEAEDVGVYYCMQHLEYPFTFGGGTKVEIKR
Result: 8.11
